B1: EPB41L3 (parent)
chain: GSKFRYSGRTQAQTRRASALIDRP

Variants of: B1
METHOD: protein stability index of a GFP-peptide fusion (GPS, HEK-293T) (PSI 1-6); higher = more stable;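 also: lentivirally expressed fusions sorted by FACS into six bins by GFP to DsRed ratio, PSI derived from sequencing read proportions per bin multiplied by bin number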
SETUP_CONDITIONS: c terminus: a fixed tail appended
# protein stability index values compiled below

[
  {
    "CHANGE": "S18A",
    "protein stability index": 3.02
  },
  {
    "CHANGE": "G1P",
    "protein stability index": 2.99
  },
  {
    "CHANGE": "I21Q",
    "protein stability index": 3.06
  },
  {
    "CHANGE": "R9T",
    "protein stability index": 3.01
  },
  {
    "CHANGE": "A17M",
    "protein stability index": 3.02
  },
  {
    "CHANGE": "S7F",
    "protein stability index": 2.96
  },
  {
    "CHANGE": "R23S",
    "protein stability index": 3.01
  },
  {
    "CHANGE": "G8V",
    "protein stability index": 3.07
  },
  {
    "CHANGE": "T10A",
    "protein stability index": 2.97
  },
  {
    "CHANGE": "T10E",
    "protein stability index": 3.01
  },
  {
    "CHANGE": "R23K",
    "protein stability index": 2.94
  },
  {
    "CHANGE": "A17T",
    "protein stability index": 2.99
  },
  {
    "CHANGE": "A19G",
    "protein stability index": 2.91
  },
  {
    "CHANGE": "R23P",
    "protein stability index": 3.02
  },
  {
    "CHANGE": "Q11D",
    "protein stability index": 3.09
  },
  {
    "CHANGE": "G1T",
    "protein stability index": 3.08
  },
  {
    "CHANGE": "Y6F",
    "protein stability index": 2.96
  }
]
